These measurements were taken from PubChem BioAssay (NCI).

Kindly supply the reported TGI values for the records listed here.
- Test system: SK-MEL-2 melanoma
- Test: NCI tumour cell line growth inhibition, 48 h
Answer in µM, number only, no unit symbol.

Form entry - test system: SK-MEL-2 melanoma; read-out: TGI; molecule: `COC(=O)CCC(=O)NC1=C(Nc2ccc(OC)cc2)C(=O)c2ccccc2C1=O`
20.1

Form entry - test system: SK-MEL-2 melanoma; read-out: TGI; molecule: `Oc1ccc(-c2nc(-c3cccnc3)c(-c3ccc(Cl)cc3)[nH]2)cc1O`
31.8

Form entry - test system: SK-MEL-2 melanoma; read-out: TGI; molecule: `O=C(/N=C/c1c(O)c2ccccc2oc1=O)Nc1ccccc1`
80.4

---

- Test system: HL-60(TB) leukemia
- Test: NCI tumour cell line growth inhibition, 48 h
Kindly supply the reported TGI values for the records listed here.

Query: TGI; subject: `O=C(/C=C/c1ccc(O)cc1)c1ccc2c(c1)OCO2`
41.3 µM

Query: TGI; subject: `O=C(c1ccco1)N1CCCN(C(=O)c2ccco2)C1=S`
> 100 µM

Query: TGI; subject: `CCOC(=O)c1sc(-c2ccc(OS(=O)(=O)c3ccc(Br)s3)c(C=O)c2)nc1C`
19.7 µM

Query: TGI; subject: `COc1ccc2c(c1)C(=O)c1c-2n(CCCN=[N+]=[N-])c(=O)c2cc(OC)c(OC)cc12`
25.7 µM

Query: TGI; subject: CCc1cc(Cc2cc(Cl)c(NC(=O)C(=O)C3NC(=O)NC3=O)c(CC)c2)cc(Cl)c1NC(=O)C(=O)C1NC(=O)NC1=O (stereo unspecified)
> 100 µM

Query: TGI; subject: CC[N+](CC)=c1sc2c(s1)C(c1ccc(Cl)cc1)Oc1ccc(Cl)cc1-2 (stereo unspecified)
5.98 µM

Query: TGI; subject: `CCCC(=O)NC1=C(Cl)C(=O)c2ccccc2C1=O`
0.899 µM

Query: TGI; subject: OC(c1cc2ccccc2o1)c1cc2ccccc2s1 (stereo unspecified)
> 10 µM

Query: TGI; subject: COC(=O)N(C(=O)OC)C(C(=O)O)C(C)C (stereo unspecified)
> 100 µM

Query: TGI; subject: COC(=O)C1=C(C(=O)OC)C(C(=O)c2ccc(Br)cc2)N2N=C(c3ccc(Cl)cc3)C=CC12 (stereo unspecified)
> 100 µM

Query: TGI; subject: Nc1ccccc1C(=O)CC1OC(=O)c2ccccc21 (stereo unspecified)
> 100 µM

Query: TGI; subject: `O=C1c2ccccc2-c2c1c1c(=O)[nH]c3ccccc3c1n2Cc1ccccc1`
> 100 µM

Query: TGI; subject: `COc1ccc(-c2cc(=O)c3cc4c(cc3[nH]2)OCO4)cc1OC`
> 100 µM

Query: TGI; subject: `CC(=O)N=C1N(/C=C2\C(=O)Oc3ccccc3C2=O)C(=O)/C(=C/c2ccc(OC(C)=O)cc2)N1C`
> 100 µM

Query: TGI; subject: Nc1nc(Cl)c(N)c(NCC2(CO)CC(OCc3ccccc3)C2)n1 (stereo unspecified)
> 100 µM

Query: TGI; subject: CCCCCC(=O)C(C)C1=Nc2nnc(CCCCCCCc3nnc4n3C(=O)C(C(C)C(=O)CCCCC)=N4)n2C1=O (stereo unspecified)
> 100 µM

Query: TGI; subject: CC(=O)OCC1OC(n2c(-c3ccc(Cl)cc3)ccc(C#N)c2=S)C(OC(C)=O)C(OC(C)=O)C1OC(C)=O (stereo unspecified)
> 100 µM

Query: TGI; subject: `CC[C@]12C=CCN3CC[C@@]4(c5cc(Br)c(OC)cc5N(C)[C@H]4[C@@](O)(C(=O)NN)[C@@H]1O)[C@@H]32`
> 100 µM

Query: TGI; subject: `NC(N)=N/N=C/c1nc2n(c1[N+](=O)[O-])CCS2`
55 µM

Query: TGI; subject: `CC(C)(C)C(=O)c1c(C(F)(F)F)n([O-])c2ccccc2[n+]1=O`
1.08 µM

Query: TGI; subject: `COc1ccc(-c2cn[nH]c2-c2cc(OC)c3c(c2)OCO3)cc1`
0.771 µM

Query: TGI; subject: `O=S(=O)(O)c1cc(O)c2c(N=Cc3ccccc3O)cc(S(=O)(=O)O)cc2c1`
> 100 µM

Query: TGI; subject: `O=C(O)c1cc2ccccc2c(N=Nc2ccc(S(=O)(=O)Nc3nccs3)cc2)c1O`
> 100 µM

Query: TGI; subject: COC(=O)[C@]1(c2cc3ccccc3n2S(=O)(=O)c2ccccc2)CC2CN(C(C)=O)C1CC2=O (stereo partly specified)
4.64 µM

Query: TGI; subject: `COc1ccc(-c2cc(=O)c3ccc(C)nc3[nH]2)cc1`
> 100 µM

Query: TGI; subject: `CC(C)/C(Cl)=N\OC(=O)Nc1ccccc1F`
4.13 µM

---

Kindly supply the reported TGI values for the records listed here.
- Tested on: NCI-H226 lung
- Test: NCI tumour cell line growth inhibition, 48 h
Answer in µM, number only, no unit symbol.

Query: TGI; subject: `Cc1cccc2c(=O)c([Se]c3coc4c(C)cccc4c3=O)coc12`
33.1

Query: TGI; subject: `CN(C)c1ccc(C(=C(c2ccc(N(C)C)cc2)c2ccc(N(C)C)cc2)c2ccc(N(C)C)cc2)cc1`
36.9

Query: TGI; subject: `Cc1ccsc1/C=N/Nc1nc2ccccc2s1`
51.9

Query: TGI; subject: `[Cl-].[O-]/N=C(\c1ccccc1)c1ccccn1.[O-]/N=C(\c1ccccc1)c1ccccn1.[O-]/N=C(\c1ccccc1)c1ccccn1.[Sm+3]`
62.5

---

- Test system: OVCAR-5 ovarian
- Test: NCI tumour cell line growth inhibition, 48 h; in the data active means GI50 below about 0.43 µM; inactive means the rest
Form entry, call: pick from active, inactive

Recorded test outcome, item `Fc1ccc2[nH]cc(-c3nonc3-c3c[nH]c4ccc(Br)cc34)c2c1`
inactive

Recorded test outcome, item `COc1cccc(-c2cc(=O)c3cc(OC)ccc3[nH]2)c1`
inactive

Recorded test outcome, item `CCc1cccc(C)c1NC(=O)c1sc2nc3c(cc2c1N)CCCCC3`
inactive

Recorded test outcome, item `O=C(Nc1cccc(-n2ccc3c(NC(=O)c4ccccc4)nccc32)c1)Nc1cc(C(F)(F)F)cc(C(F)(F)F)c1`
inactive

Recorded test outcome, item C=C1C(O)C2C(=C(CCc3ccccc3)C13CC3)C(=O)C(C)(CO)C2O (configuration not stated)
inactive

Recorded test outcome, item `[Cl][Hg][Cl]`
inactive

Recorded test outcome, item `CN(C)CCCNC(=O)c1cc(NC(=O)c2cc(NC(=O)CCc3c[nH]c4ccccc34)cn2C)cn1C`
inactive

Recorded test outcome, item `COc1cc(C#Cc2ccc(=O)oc2C#Cc2ccccc2)cc(OC)c1OC`
inactive

Recorded test outcome, item `CCN(Cc1cccc(F)c1)c1ccc(CO)c(Cl)c1`
active

Recorded test outcome, item Cc1ccc(C)c2c1C(O)(C#Cc1ccccc1)c1ccccc1C2(O)C#Cc1ccccc1 (configuration not stated)
inactive

Recorded test outcome, item `Cc1cc(S(=O)(=O)Nc2nc3cscc3c(=O)n2Cc2ccccc2)c(S)cc1Cl`
inactive

Recorded test outcome, item `Cc1sc2nc(-c3ccncc3)c(/C=N/N=C(N)N)n2c1C`
inactive

---

- Test system: SW-620 colon
- Test: NCI tumour cell line growth inhibition, 48 h
Property Name: TGI

Query: TGI; subject: CCCCCC(=O)C(C)C1=Nc2nnc(CCCCCCCc3nnc4n3C(=O)C(C(C)C(=O)CCCCC)=N4)n2C1=O (centres undefined)
> 100 µM

Query: TGI; subject: Nc1nc(Cl)c(N)c(NCC2(CO)CC(OCc3ccccc3)C2)n1 (centres undefined)
> 100 µM

Query: TGI; subject: OC(c1cc2ccccc2o1)c1cc2ccccc2s1 (centres undefined)
> 10 µM

Query: TGI; subject: `CC(=O)OCCCOCn1c(Cc2ccccc2)c(C)c(=O)[nH]c1=O`
> 100 µM

Query: TGI; subject: `FC(F)c1nc2ccccc2n1-c1nc(N2CCOCC2)nc(N2CCOCC2)n1`
> 100 µM

Query: TGI; subject: C=C1C(O)C2C(=C(CCc3ccccc3)C13CC3)C(=O)C(C)(CO)C2O (centres undefined)
> 100 µM

Query: TGI; subject: `C=C1C(=O)O[C@H]2[C@H]1CC/C(COC(=O)CSCCSCC(=O)OC/C1=C/CC[C@@]3(C)O[C@H]3[C@H]3OC(=O)C(=C)[C@@H]3CC1)=C\CC[C@@]1(C)O[C@@H]21`
3.45 µM

Query: TGI; subject: `CCSc1sc(=Nc2ccc(N=c3sc(C)c(SC)s3)cc2)sc1-c1ccc(C)cc1`
> 100 µM

Query: TGI; subject: COc1cc(C2c3cc4c(cc3[C@@H](Nc3ccccc3)C3COC[C@H]23)OCO4)cc(OC)c1O (some centres undefined)
> 100 µM

---

- System: OVCAR-3 ovarian
- Test: NCI tumour cell line growth inhibition, 48 h
Property Name: TGI

Query: TGI; subject: CC(C)CC(NC(=O)c1cccc(O)c1O)C(=O)NCc1cc(CNC(=O)C(CC(C)C)NC(=O)c2cccc(O)c2O)cc(CNC(=O)C(CC(C)C)NC(=O)c2cccc(O)c2O)c1 (centres undefined)
19.7 µM

Query: TGI; subject: `O=C1NC(SSC2=NNC3(C(=O)N2)c2ccccc2-c2ccccc23)=NNC12c1ccccc1-c1ccccc12`
> 10 µM

Query: TGI; subject: `O=C(/C=C/c1ccc(O)cc1)c1ccc2c(c1)OCO2`
41 µM

Query: TGI; subject: `COc1cc2c(c(OC)c1OC)-c1ccc(SC)c(=O)cc1[C@@H](NCc1ccc(C#N)cc1)CC2`
0.0129 µM
